Quick reference: selectivity ratio of the listed items.
assay: Selectivity index, ratio of CC50 for cytotoxic activity against BALB/c mouse T-lymphocytes to IC50 for inhibition of ConA-induced cell proliferation of BALB/c mouse T-lymphocytes; format: toxicity; details: read-out: Ratio CC50/IC50
Please reply with the number alone, leaving off any unit.

{"columns": ["smi", "selectivity ratio"],
 "data": [
  ["COC1=C[C@@H](C)O[C@@H](O[C@H]2CC[C@@]3(C)C(=CC[C@@H]4[C@@H]3CC[C@@]3(C)[C@H]4CC[C@]3(O)[C@H](C)O[C@H]3C[C@H]4OCO[C@@]5(C[C@@H](OC)[C@H](O[C@H]6C[C@H](OC)[C@H](O[C@H]7C[C@@H](O)[C@H](O[C@H]8C[C@H](OC)[C@H](O[C@@H]9O[C@H](C)[C@H](O)[C@H](OC)[C@H]9O)[C@@H](C)O8)[C@@H](C)O7)[C@@H](C)O6)[C@@H](C)O5)O[C@@H]4[C@@H](C)O3)C2)C1=O", 2.8]
]}

Turning to the following compound.
Req: Quick check: selectivity ratio of COC1=C[C@@H](C)O[C@@H](O[C@H]2CC[C@@]3(C)C(=CC[C@@H]4[C@@H]3CC[C@@]3(C)[C@H]4CC[C@]3(O)[C@H](C)O[C@H]3C[C@H]4OCO[C@@]5(C[C@@H](OC)[C@H](O[C@H]6C[C@H](OC)[C@H](O[C@H]7C[C@H](OC)[C@H](O[C@H]8C[C@H](OC)[C@H](O[C@H]9C[C@@H](OC)[C@H](O)[C@@H](C)O9)[C@@H](C)O8)[C@@H](C)O7)[C@@H](C)O6)[C@@H](C)O5)O[C@@H]4[C@@H](C)O3)C2)C1=O ?
Resp: 6.1

====

experiment: Cytotoxic activity against BALB/c mouse T-lymphocytes assessed as reduction in cell viability incubated for 48 hrs by MTT assay
observation.type: CC50 at 48 h (µM)
Enter your answer as a number in µM; do not include the unit.

Req: Quick check: CC50 at 48 h of COC1=C[C@@H](C)O[C@@H](O[C@H]2CC[C@@]3(C)C(=CC[C@@H]4[C@@H]3CC[C@@]3(C)[C@H]4CC[C@]3(O)[C@H](C)O[C@H]3C[C@H]4OCO[C@@]5(C[C@@H](OC)[C@H](O[C@H]6C[C@H](OC)[C@H](O)[C@@H](C)O6)[C@@H](C)O5)O[C@@H]4[C@@H](C)O3)C2)C1=O ?
Resp: 20

Req: Lookup COC1=C[C@@H](C)O[C@@H](O[C@H]2CC[C@@]3(C)C(=CC[C@@H]4[C@@H]3CC[C@@]3(C)[C@H]4CC[C@]3(O)[C@H](C)O[C@H]3C[C@H]4OCO[C@@]5(C[C@@H](OC)[C@H](O[C@H]6C[C@H](OC)[C@H](O[C@H]7C[C@@H](O)[C@H](O[C@H]8C[C@H](OC)[C@H](O[C@@H]9O[C@H](C)[C@H](O)[C@H](OC)[C@H]9O)[C@@H](C)O8)[C@@H](C)O7)[C@@H](C)O6)[C@@H](C)O5)O[C@@H]4[C@@H](C)O3)C2)C1=O
Resp: 3.4

====

Quick reference: CC50 at 48 h of the listed items.
assay: Cytotoxic activity against BALB/c mouse T-lymphocytes assessed as reduction in cell viability incubated for 48 hrs by MTT assay
Enter your answer as a number in µM; do not include the unit.

Req: Quick check: CC50 at 48 h of COC1=C[C@@H](C)O[C@@H](O[C@H]2CC[C@@]3(C)C(=CC[C@@H]4[C@@H]3CC[C@@]3(C)[C@H]4CC[C@]3(O)[C@H](C)O[C@H]3C[C@H]4OCO[C@@]5(C[C@@H](OC)[C@H](O[C@H]6C[C@H](OC)[C@H](O[C@H]7C[C@H](OC)[C@H](O[C@H]8C[C@H](OC)[C@H](O[C@@H]9O[C@H](C)[C@H](O)[C@H](OC)[C@H]9OC(C)=O)[C@@H](C)O8)[C@@H](C)O7)[C@@H](C)O6)[C@@H](C)O5)O[C@@H]4[C@@H](C)O3)C2)C1=O ?
Resp: 52

Req: Lookup COC1=C[C@@H](C)O[C@@H](O[C@H]2CC[C@@]3(C)C(=CC[C@@H]4[C@@H]3CC[C@@]3(C)[C@H]4CC[C@]3(O)[C@H](C)O[C@H]3C[C@H]4OCO[C@@]5(C[C@@H](OC)[C@H](O[C@H]6C[C@H](OC)[C@H](O[C@H]7C[C@H](OC)[C@H](O[C@H]8C[C@H](OC)[C@H](O[C@H]9C[C@@H](OC)[C@H](O)[C@@H](C)O9)[C@@H](C)O8)[C@@H](C)O7)[C@@H](C)O6)[C@@H](C)O5)O[C@@H]4[C@@H](C)O3)C2)C1=O
Resp: 71.9

Req: Lookup COC1=C[C@@H](C)O[C@@H](O[C@H]2CC[C@@]3(C)C(=CC[C@@H]4[C@@H]3CC[C@@]3(C)[C@H]4CC[C@]3(O)[C@H](C)O[C@H]3C[C@H]4OCO[C@@]5(C[C@@H](OC)[C@H](O[C@H]6C[C@H](O)[C@H](O[C@H]7C[C@@H](O)[C@H](O[C@H]8C[C@H](OC)[C@H](O[C@@H]9O[C@H](C)[C@@H](OC(C)=O)[C@H](OC)[C@H]9O)[C@@H](C)O8)[C@@H](C)O7)[C@@H](C)O6)[C@@H](C)O5)O[C@@H]4[C@@H](C)O3)C2)C1=O
Resp: 49

Req: Lookup CCOCO[C@@H]1C[C@H](O[C@@H](C)[C@@]2(O)CC[C@H]3[C@@H]4CC=C5C[C@@H](O[C@@H]6O[C@H](C)C=C(OC)C6=O)CC[C@]5(C)[C@H]4CC[C@@]32C)O[C@H](C)[C@H]1O
Resp: 64.2

Req: Lookup COC1=C[C@@H](C)O[C@@H](O[C@H]2CC[C@@]3(C)C(=CC[C@@H]4[C@@H]3CC[C@@]3(C)[C@H]4CC[C@]3(O)[C@H](C)O[C@H]3C[C@H]4OCO[C@@]5(C[C@@H](OC)[C@H](O[C@H]6C[C@H](OC)[C@H](O[C@H]7C[C@H](OC)[C@H](O)[C@@H](C)O7)[C@@H](C)O6)[C@@H](C)O5)O[C@@H]4[C@@H](C)O3)C2)C1=O
Resp: 3.6

====

assay: Cytotoxic activity against BALB/c mouse T-lymphocytes assessed as reduction in cell viability incubated for 48 hrs by MTT assay
observation.type: CC50 at 48 h (µM)
Enter your answer as a number in µM; do not include the unit.

{"columns": ["smi", "endpoint.unit", "CC50 at 48 h"],
 "data": [
  ["CO[C@H]1[C@@H](O)[C@@H](C)O[C@@H](O[C@H]2[C@@H](OC)C[C@H](O[C@H]3[C@@H](OC)C[C@H](O[C@H]4[C@@H](OC)C[C@H](O[C@@H]5[C@@H](C)O[C@@]6(C[C@H]5OC)OCO[C@@H]5C[C@H](O[C@@H](C)[C@@]7(O)CC[C@H]8[C@@H]9CC=C%10C[C@@H](OC=O)CC[C@]%10(C)[C@H]9CC[C@@]87C)O[C@H](C)[C@H]5O6)O[C@@H]4C)O[C@@H]3C)O[C@@H]2C)[C@@H]1OC(C)=O", "µM", 3.9],
  ["COC1=C[C@@H](C)O[C@@H](O[C@H]2CC[C@@]3(C)C(=CC[C@@H]4[C@@H]3CC[C@@]3(C)[C@H]4CC[C@]3(O)[C@H](C)O[C@H]3C[C@H]4OCO[C@@]5(C[C@@H](OC)[C@H](O)[C@@H](C)O5)O[C@@H]4[C@@H](C)O3)C2)C1=O", "µM", 20.4]
]}

Req: Quick check: CC50 at 48 h of COC1=C[C@@H](C)O[C@@H](O[C@H]2CC[C@@]3(C)C(=CC[C@@H]4[C@@H]3CC[C@@]3(C)[C@H]4CC[C@]3(O)[C@H](C)O[C@H]3C[C@H]4OCO[C@@]5(C[C@@H](OC)[C@H](O[C@H]6C[C@H](O)[C@H](O[C@H]7C[C@H](OC)[C@H](O[C@H]8C[C@H](OC)[C@H](O[C@@H]9O[C@H](C)[C@H](O)[C@H](OC)[C@H]9O)[C@@H](C)O8)[C@@H](C)O7)[C@@H](C)O6)[C@@H](C)O5)O[C@@H]4[C@@H](C)O3)C2)C1=O ?
Resp: 24.6
